# target_entity: recombinant HA of influenza B virus B/Brisbane/08 (Victoria clade) (influenza B virus B/Brisbane/08 …)
# assay_protocol: recombinant HA ELISA (AttoPhos fluorescence, mean of triplicates)
Assign fold reactivity over background to each entry below.
Give bare numbers, in fold over background.

Provide fold reactivity over background for all items below, preserving their order.
1. TRL842 (antibody, V domains shown) VH: QVQLLESGGDVVQPGTSLRLSCAASGFSLWTSGMHWVRQAPGKGLEWVAVMSYDETKKYYADSVRGRFSISRDNSRNTLYLQMNSLRVEDTAVYFCAKPRLDYLDYFHAADSWGQGTLVSVSS VL: DIVLTQPPSVSVAPGQTATITCGGNYIGSKSVNWYQQRPGHAPVLVVYDDSDRPSGIPDRFSGSNSRSTATTATLTISRVEAGDEADYYCQVWETSEDLWVFGGGTKLTVLG
2. TRL809 (antibody, V domains shown) VH: QVQLLESGGGVVRPGRSLRLACAGSGFTFSAYAMHWVRQAPGKGLEWVAHTSYDGRDSYYVDSVKGRFTISRDDSKNTLYLQMNSLRPEDTAVYYCAKVGPYTGYDDYNYYGMDVWGHGTTVTVSS VL: DIVLTQSPVSLAVSLGESATVNCKSSQSVLSNSKNLNYLAWYQHKPGQPPKLLIYWASTRESGVPDRFSGSGSGTDFTLTISSLQAEDVAVYYCQQHYSIPLTFGPGTKVDIKR
3. TRL848 (antibody, V domains shown) VH: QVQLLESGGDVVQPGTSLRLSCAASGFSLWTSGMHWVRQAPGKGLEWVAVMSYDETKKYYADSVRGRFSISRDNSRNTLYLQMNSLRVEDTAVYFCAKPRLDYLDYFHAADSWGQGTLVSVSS VL: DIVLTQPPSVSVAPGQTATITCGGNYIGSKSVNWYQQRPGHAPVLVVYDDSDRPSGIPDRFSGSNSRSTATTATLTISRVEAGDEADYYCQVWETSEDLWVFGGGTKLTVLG

output:
[25.6, 25.6, 25.6]

The origin of these recorded values is patent US20170189529A1.
